system: lung carcinoma cell line A549; assay: Calcein AM cytotoxicity assay, A549; type: cell-based, human; details: 72 h, means ± SD, three independent experiments in triplicate, read-out: IC50, A 549
What pIC50 was measured for each of the following?
Reminder that pIC50 is minus the log10 of a molar concentration.

Task item: Quick one: pIC50 of C/C=C/C(=O)OC[C@@H](C)[C@@]1(O)[C@@H](O[C@@H]2OC[C@H](O)[C@H](O[C@@H]3OC[C@@H](O)[C@H](O)[C@H]3OC(=O)c3ccc(OC)cc3)[C@H]2OC(C)=O)C[C@H]2[C@@H]3CC=C4C[C@@H](O)CC[C@]4(C)[C@H]3CC[C@@]21C ?
Reply: 6.26

Task item: Fill in the blank: the reported pIC50 of CCCCC(=O)OC[C@@H](C)[C@@]1(O)[C@@H](O[C@@H]2OC[C@H](O)[C@H](O[C@@H]3OC[C@@H](O)[C@H](O)[C@H]3OC(=O)c3ccc(OC)cc3)[C@H]2OC(C)=O)C[C@H]2[C@@H]3CC=C4C[C@@H](O)CC[C@]4(C)[C@H]3CC[C@@]21C is ____.
Reply: 6.80

Task item: So what's the measured pIC50 for this one? COc1ccc(C(=O)O[C@H]2[C@H](O[C@@H]3[C@@H](OC(C)=O)[C@H](O[C@H]4C[C@H]5[C@@H]6CC=C7C[C@@H](O)CC[C@]7(C)[C@H]6CC[C@]5(C)[C@@]4(O)[C@H](C)C(=O)CCC(C)C)OC[C@@H]3O)OC[C@@H](O)[C@@H]2O)cc1 [OSW-1, reference compound]
Reply: 7.57

Task item: Suppose we examine the compound COc1ccc(C(=O)O[C@H]2[C@H](O[C@@H]3[C@@H](OC(C)=O)[C@H](O[C@H]4C[C@H]5[C@@H]6CC=C7C[C@@H](O)CC[C@]7(C)[C@H]6CC[C@]5(C)[C@@]4(O)[C@H](C)COC(=O)c4ccccc4)OC[C@@H]3O)OC[C@@H](O)[C@@H]2O)cc1 ; what pIC50 value has been reported?
Reply: 6.77
